Molecular target: LINGO-1 (human) (UniProt Q96FE5)
Experiment: ELISA
MEASUREMENT_LABEL: ELISA Signal

BINDER	NUMBER
Li62 variant F06 Fab (VH CDR3 SEQ ID NO:25) (Fab, V domains shown) VH: EVQLLESGGGLVQPGGSLRLSCAASGFTFSIYPMFWVRQAPGKGLEWVSWIGPSGGITKYADSVKGRFTISRDNSKNTLYLQMNSLRAEDTATYYCAREGRYDWYFDLWGRGTLVTVSS VL: DIQMTQSPSFLSASVGDSVAITCRASQDISRYLAWYQQRPGKAPKLLIYDASNLQTGVPSRFSGSGSGTDFTFTITSLQPEDFGTYYCQQYDTLHPSFGPGTTVDIK	3
Li62 variant B06 Fab (VH CDR3 SEQ ID NO:17) (Fab, V domains shown) VH: EVQLLESGGGLVQPGGSLRLSCAASGFTFSIYPMFWVRQAPGKGLEWVSWIGPSGGITKYADSVKGRFTISRDNSKNTLYLQMNSLRAEDTATYYCAREGYYDWYFDQWGRGTLVTVSS VL: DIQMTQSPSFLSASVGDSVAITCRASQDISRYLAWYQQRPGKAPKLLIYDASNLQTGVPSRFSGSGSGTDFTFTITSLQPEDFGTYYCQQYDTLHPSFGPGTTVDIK	3
